# SYSTEM_TESTED: CYP 3A4T (Homo sapiens)
# Construct: from tissue; host or cells: human liver microsomes
# Sequence (P08684 whole entry): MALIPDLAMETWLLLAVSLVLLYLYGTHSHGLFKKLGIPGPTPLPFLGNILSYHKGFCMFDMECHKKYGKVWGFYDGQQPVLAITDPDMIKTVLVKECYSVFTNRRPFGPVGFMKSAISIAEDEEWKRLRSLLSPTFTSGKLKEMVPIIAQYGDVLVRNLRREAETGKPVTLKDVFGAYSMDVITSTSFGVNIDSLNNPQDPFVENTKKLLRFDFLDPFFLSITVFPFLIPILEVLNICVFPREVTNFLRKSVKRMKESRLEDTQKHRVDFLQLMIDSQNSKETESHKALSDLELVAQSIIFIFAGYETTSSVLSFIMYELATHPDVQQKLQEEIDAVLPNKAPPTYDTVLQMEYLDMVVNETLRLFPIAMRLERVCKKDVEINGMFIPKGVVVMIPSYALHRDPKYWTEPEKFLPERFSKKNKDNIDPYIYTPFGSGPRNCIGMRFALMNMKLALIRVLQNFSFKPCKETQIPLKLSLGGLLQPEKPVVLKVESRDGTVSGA
# PROTOCOL_TEXT: CYP 3A4T inhibition test in human liver microsomes (probe testosterone)
# Type: in vitro ADME
# MEASUREMENT_PARAMETERS: probe substrate testosterone, read-out: CYP 3A4T (μM), half inhibition concentration (IC50)
Quick list: IC50 per entry.

These solved cases illustrate the format of a correct answer.
COMPOUND	SYSTEM_TESTED	IC50
CCCCOCCOc1ccc(-c2ccc3c(c2)/C=C(/C(=O)Nc2ccc([S@@+]([O-])Cc4cncn4CCC)cc2)CCCN3CC(C)C)cc1 [Cenicriviroc, reference compound]	CYP 3A4T (Homo sapiens)	12.7 µM
CCCCOCCOc1ccc(-c2ccc3c(c2)/C=C(/C(=O)Nc2ccc([S+]([O-])Cc4c(C)ncn4CCC)cc2)CCCN3CC(C)(C)C(=O)O)cc1 (stereo not shown)	CYP 3A4T (Homo sapiens)	62.2 µM
CCCCOCCOc1ccc(-c2ccc3c(c2)/C=C(/C(=O)Nc2ccc([S@+]([O-])Cc4c(C)ncn4CCC)cc2)CCCN3CC(C)(C)C(=O)O)cc1	CYP 3A4T (Homo sapiens)	48.3 µM

Now examine the next entry.
Incoming: Form entry - test system: CYP 3A4T (Homo sapiens); read-out: IC50; compound: CCCCOCCOc1ccc(-c2ccc3c(c2)/C=C(/C(=O)Nc2ccc([S@@+]([O-])Cc4c(C)ncn4CCC)cc2)CCCN3CC(C)(C)C(=O)O)cc1
Outgoing: 32.3 µM
